test.method.notes: Stability and biodistribution of prodrugs in vivo (HPLC of plasma and tissues)
Parameters: species or system mice (CD-1 nude; BALB/C where indicated)
assay.conditions: mouse, feces, 50 mg/kg, FECES, 120 min, 50 mg/kg i.p. or i.v., CD-1 nude mice; read-out: stability: percentage of material observed as intact prodrug, feces
remaining at 2 h values by entry
All answers are understood in %, so give the number only.

>  <compound>
CN(Cc1cnc2nc(N)nc(N)c2n1)c1ccc(C(=O)N[C@@H](CCC(=O)O)C(=O)N[C@@H](Cc2cccc(C(C)(C)C)c2)C(=O)O)cc1 [Prodrug 12]

>  <measured.endpoint>
remaining at 2 h

>  <reported.measurement>
82

$$$$
>  <compound>
CN(Cc1cnc2nc(N)nc(N)c2n1)c1ccc(C(=O)N[C@@H](CCC(=O)O)C(=O)N[C@@H](Cc2ccccc2C2CCCC2)C(=O)O)cc1 [Prodrug 8]

>  <measured.endpoint>
remaining at 2 h

>  <reported.measurement>
55

$$$$
>  <compound>
CN(Cc1cnc2nc(N)nc(N)c2n1)c1ccc(C(=O)N[C@@H](CCC(=O)O)C(=O)N[C@@H](Cc2ccc(O)c(C3CCCC3)c2)C(=O)O)cc1 [Prodrug 13]

>  <measured.endpoint>
remaining at 2 h

>  <reported.measurement>
100

$$$$
>  <compound>
CN(Cc1cnc2nc(N)nc(N)c2n1)c1ccc(C(=O)N[C@@H](CCC(=O)O)C(=O)N[C@@H](Cc2cccc(C3CCC3)c2)C(=O)O)cc1 [Prodrug 11]

>  <measured.endpoint>
remaining at 2 h

>  <reported.measurement>
67.9

$$$$
>  <compound>
CN(Cc1cnc2nc(N)nc(N)c2n1)c1ccc(C(=O)N[C@@H](CCC(=O)O)C(=O)N[C@@H](CC(=O)O)C(=O)O)cc1 [Prodrug 6]

>  <measured.endpoint>
remaining at 2 h

>  <reported.measurement>
52

$$$$
>  <compound>
Nc1nc(N)c(CCCNc2ccc(C(=O)N[C@@H](CCC(=O)O)C(=O)N[C@@H](Cc3cccc(C4CCCC4)c3)C(=O)O)cc2)c(=O)[nH]1 [Prodrug 14]

>  <measured.endpoint>
remaining at 2 h

>  <reported.measurement>
88

$$$$

We now examine a further compound.
[Q] remaining at 2 h lookup needed for CN(Cc1cnc2nc(N)nc(N)c2n1)c1ccc(C(=O)N[C@@H](CCC(=O)O)C(=O)N[C@@H](Cc2cccc(C3CCCC3)c2)C(=O)O)cc1 [Prodrug 9] , thanks.
[A] 94

###

test.method.notes: Stability and biodistribution of prodrugs in vivo (HPLC of plasma and tissues)
Set-up: species or system mice (CD-1 nude; BALB/C where indicated)
assay.conditions: mouse, kidney, 50 mg/kg, KIDNEY, 30 min, 50 mg/kg i.p. or i.v., CD-1 nude mice; read-out: stability: percentage of material observed as intact prodrug, kidney
Each entry below carries its recorded remaining at 0.5 h.
Answer in %, number only, no unit symbol.

Worked set:
>  <compound>
CN(Cc1cnc2nc(N)nc(N)c2n1)c1ccc(C(=O)N[C@@H](CCC(=O)O)C(=O)N[C@@H](Cc2cccc(C3CCC3)c2)C(=O)O)cc1 [Prodrug 11]

>  <measured.endpoint>
remaining at 0.5 h

>  <reported.measurement>
83.5

$$$$
>  <compound>
Cc1nc2ccc3ccc(CNc4ccc5c(c4)CN([C@@H](CCC(=O)O)C(=O)N[C@@H](Cc4ccccc4)C(=O)O)C5=O)cc3c2c(=O)[nH]1 [Prodrug 2]

>  <measured.endpoint>
remaining at 0.5 h

>  <reported.measurement>
96

$$$$
>  <compound>
CN(Cc1cnc2nc(N)nc(N)c2n1)c1ccc(C(=O)N[C@@H](CCC(=O)O)C(=O)N[C@@H](Cc2cccc(C3CCCC3)c2)C(=O)O)cc1 [Prodrug 9]

>  <measured.endpoint>
remaining at 0.5 h

>  <reported.measurement>
100

$$$$
>  <compound>
Cc1nc2ccc3ccc(CNc4ccc(C(=O)N[C@@H](CCC(=O)O)C(=O)N[C@@H](CCC(=O)O)C(=O)O)c(F)c4)cc3c2c(=O)[nH]1 [Prodrug 1]

>  <measured.endpoint>
remaining at 0.5 h

>  <reported.measurement>
98

$$$$
>  <compound>
Cc1nc2ccc3ccc(CNc4ccc(C(=O)N[C@@H](CCC(=O)O)C(=O)N[C@@H](Cc5ccccc5C(=O)O)C(=O)O)c(F)c4)cc3c2c(=O)[nH]1 [Prodrug 4]

>  <measured.endpoint>
remaining at 0.5 h

>  <reported.measurement>
100

$$$$

[Q] Look up remaining at 0.5 h for this compound: CN(Cc1cnc2nc(N)nc(N)c2n1)c1ccc(C(=O)N[C@@H](CCC(=O)O)C(=O)N[C@@H](Cc2ccccc2C2CCCC2)C(=O)O)cc1 [Prodrug 8]
[A] 84

[Q] What would you report for CN(Cc1cnc2nc(N)nc(N)c2n1)c1ccc(C(=O)N[C@@H](CCC(=O)O)C(=O)N[C@@H](Cc2ccccc2)C(=O)O)cc1 [Prodrug 10, reference compound] ?
[A] 100

[Q] Same again, this time with CN(Cc1cnc2nc(N)nc(N)c2n1)c1ccc(C(=O)N[C@@H](CCC(=O)O)C(=O)N[C@@H](CC(=O)O)C(=O)O)cc1 [Prodrug 6]
[A] 98

[Q] # repeat for Cc1nc2ccc3ccc(CNc4ccc(C(=O)N[C@@H](CCC(=O)O)C(=O)N[C@@H](Cc5ccccc5I)C(=O)O)c(F)c4)cc3c2c(=O)[nH]1 [Prodrug 5]
[A] 83

[Q] One more compound: CN(Cc1cnc2nc(N)nc(N)c2n1)c1ccc(C(=O)N[C@@H](CCC(=O)O)C(=O)N[C@@H](Cc2cccc(C(C)(C)C)c2)C(=O)O)cc1 [Prodrug 12]
[A] 53.4

[Q] Next compound: CN(Cc1cnc2nc(N)nc(N)c2n1)c1ccc(C(=O)N[C@@H](CCC(=O)O)C(=O)N[C@@H](Cc2ccccc2C(=O)O)C(=O)O)cc1 [Prodrug 7]
[A] 100
